All figures here come from ChEMBL document CHEMBL1153474.

experiment: Cmax in BALB/c mouse at 10 mg/kg, po administered once daily for 3 days measured after 1 hr; assay type: ADME, organism-based; parameters: dose 10 mg/kg, route oral; conditions: in vivo
REPORTED METRIC: Cmax (nM)
Give just the numeric value; nM need not be written.

Fill blank: measured Cmax of the molecule CN([C@@H]1CCc2c(c3ncccc3n2CC(=O)O)C1)S(=O)(=O)c1ccc(F)cc1 is ____.
770

###

Biological target: Prostaglandin D2 receptor 2 (Homo sapiens, UniProt Q9Y5Y4)
Sequence (Q9Y5Y4 whole entry): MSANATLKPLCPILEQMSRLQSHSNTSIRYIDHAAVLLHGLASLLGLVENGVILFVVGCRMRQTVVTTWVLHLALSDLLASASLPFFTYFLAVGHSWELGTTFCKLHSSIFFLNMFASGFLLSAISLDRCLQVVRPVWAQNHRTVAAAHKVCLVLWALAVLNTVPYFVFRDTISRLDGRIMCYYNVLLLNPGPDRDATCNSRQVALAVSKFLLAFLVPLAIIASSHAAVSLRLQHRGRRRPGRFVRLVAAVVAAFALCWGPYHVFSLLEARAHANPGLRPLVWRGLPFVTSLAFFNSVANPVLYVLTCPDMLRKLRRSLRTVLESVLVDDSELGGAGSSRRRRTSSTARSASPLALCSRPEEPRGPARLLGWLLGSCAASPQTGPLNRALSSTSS
Assay: Displacement of [3H]PGD2 from human prostaglandin D2 receptor
pIC50: −log10 of the molar value.
Decide by pIC50: equal to or exceeding 7 means T, less means F.

Would you please look over these solved cases?
# check: pIC50 of CN([C@@H]1CCc2c(CC(=O)O)c3ncccc3n2C1)S(=O)(=O)c1ccc(F)cc1 is greater than or equal to 7
F

# check: pIC50 of CN([C@@H]1CCC2=C(C1)C1C=CC=CC1N2CC(=O)O)S(=O)(=O)c1ccc(F)cc1 (stereo not given in full) is greater than or equal to 7
T

# check: pIC50 of CN(C)c1nc(Cc2ccc(NC(=O)c3ccc(C(F)(F)F)cc3)cc2)nc(N(C)C)c1CC(=O)O is greater than or equal to 7
T

Read the next record carefully.
# check: pIC50 of CN([C@@H]1CCc2c(CC(=O)O)c3ccccc3n2C1)S(=O)(=O)c1ccc(F)cc1 is greater than or equal to 7
T
